Data provenance: paper PMC3874090

Assign IC50 to each entry below.
- Target or system: acetylcholinesterase from electric eel (Electrophorus electricus, UniProt O42275)
- Construct: purchased Sigma-Aldrich (Steinheim, Germany) Type V-S
- Sequence (O42275 24-633): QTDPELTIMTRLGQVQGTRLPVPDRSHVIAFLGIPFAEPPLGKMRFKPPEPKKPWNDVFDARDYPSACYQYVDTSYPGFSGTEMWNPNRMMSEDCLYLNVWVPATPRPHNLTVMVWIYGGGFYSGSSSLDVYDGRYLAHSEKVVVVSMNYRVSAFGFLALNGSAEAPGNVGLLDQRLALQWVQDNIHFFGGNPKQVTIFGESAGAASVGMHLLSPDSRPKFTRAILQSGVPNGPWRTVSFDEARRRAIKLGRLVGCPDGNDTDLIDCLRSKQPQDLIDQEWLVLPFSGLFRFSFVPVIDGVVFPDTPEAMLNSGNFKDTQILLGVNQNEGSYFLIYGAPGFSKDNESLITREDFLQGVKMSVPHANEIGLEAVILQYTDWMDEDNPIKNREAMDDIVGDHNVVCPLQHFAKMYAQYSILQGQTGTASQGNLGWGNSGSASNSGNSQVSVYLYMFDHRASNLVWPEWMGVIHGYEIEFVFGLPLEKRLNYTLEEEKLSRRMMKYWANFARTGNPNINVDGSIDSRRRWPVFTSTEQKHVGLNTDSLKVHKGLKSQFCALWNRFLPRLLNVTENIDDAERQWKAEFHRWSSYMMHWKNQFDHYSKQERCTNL
- Protocol description: biochemical
- Experimental parameters: Ellman test, electric eel AChE, preincubated 15 min at 25 °C, pH 8.0, triplicate; read-out: IC50 (μM ± SD), acetylcholinesterase inhibitory activity
Reply with the number, then its unit.

# Smiles code, IC50
rows = [
    ("O=C(CN1CCN(CCN2C(=O)c3ccccc3C2=O)CC1)c1ccccc1", "45.6 µM"),
    ("O=C(CN1CCN(CCN2C(=O)c3ccccc3C2=O)CC1)c1ccc(Cl)cc1Cl", "63 µM"),
    ("O=C(CN1CCN(CCN2C(=O)c3ccccc3C2=O)CC1)c1ccc2ccccc2c1", "40.5 µM"),
]

Now consider a different molecule.
Value of measured IC50 for the entry "O=C(CN1CCN(CCN2C(=O)c3ccccc3C2=O)CC1)c1cccc(Cl)c1" : 28.2 µM
